target: UniProt:Q9JI35; assay: ileal longitudinal muscle, myenteric plexus functional assay (shift of R-(α)-methylhistamine E/[A] curves, Schild); assay type: cell-based; parameters: the longitudinal muscle layer and adhering myenteric plexus was teased away; from tissue; host or cells: guinea pig ileal longitudinal muscle with myenteric plexus; settings: guinea pig ileum longitudinal muscle myenteric plexus, electrically stimulated; antagonism of R-(α)-methylhistamine; typical variance ±0.15 log units; read-out: pKB (functional assay) - ileum (converted)
Sequence (Q9JI35 whole entry): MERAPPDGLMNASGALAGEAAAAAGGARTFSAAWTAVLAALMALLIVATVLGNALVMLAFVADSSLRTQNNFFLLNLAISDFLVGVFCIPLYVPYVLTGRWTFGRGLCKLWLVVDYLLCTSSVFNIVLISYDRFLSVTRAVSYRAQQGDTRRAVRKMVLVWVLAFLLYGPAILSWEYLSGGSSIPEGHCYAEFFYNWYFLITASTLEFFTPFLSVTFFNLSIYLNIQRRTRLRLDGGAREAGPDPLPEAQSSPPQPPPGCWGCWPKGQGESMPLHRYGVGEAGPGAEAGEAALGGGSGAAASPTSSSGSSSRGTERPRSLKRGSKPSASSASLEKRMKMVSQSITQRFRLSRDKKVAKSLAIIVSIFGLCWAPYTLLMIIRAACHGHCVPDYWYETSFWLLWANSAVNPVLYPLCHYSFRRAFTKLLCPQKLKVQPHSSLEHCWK
Assign class by Kb: not lower than 200 nM means rule met; lower than 200 nM means rule not met.

Past entries and their recorded results:
{"Molecule": "O=S(=O)(NCc1ccc(Cl)cc1)NCc1ccc(Cc2c[nH]cn2)cc1 [Example 3]", "Answer Label": "rule not met"}
{"Molecule": "O=S(=O)(Cc1ccc(Cl)cc1)Nc1ccc(Cc2c[nH]cn2)cc1 [Example 4]", "Answer Label": "rule met"}
{"Molecule": "O=S(=O)(Cc1ccc(Cl)cc1)NCCc1ccc(Cc2c[nH]cn2)cc1 [Example 7]", "Answer Label": "rule met"}
{"Molecule": "O=S(=O)(Cc1ccc(Cl)cc1)NCc1ccc(Cc2c[nH]cn2)cc1 [Example 2]", "Answer Label": "rule not met"}

# evaluate next
Q. Identify whether the reported Kb of the following molecule is 200 nM or greater: O=S(=O)(NCc1ccc(Cc2c[nH]cn2)cc1)c1ccc2ccccc2c1 [Example 1]
A. rule met
